For each of the molecules below, state its TGI.
Tested on: NCI-H460 lung
Measurement description: NCI tumour cell line growth inhibition, 48 h

Q: Any idea what TGI was measured for CC(=O)Nc1nc(C)c(S(=O)(=O)NC(=O)NC2NC(=O)NC2=O)s1 (centres undefined) ?
Result: > 100 µM

Q: Any idea what TGI was measured for CN(O)C(=O)CCC(NC(=O)CCC(N)C(=O)O)C(=O)NCC(=O)O (centres undefined) ?
Result: > 100 µM

Q: Any idea what TGI was measured for COC(=O)/C=C1/SC(=Nc2cccc(Cl)c2)N(CCc2c[nH]c3ccc(O)cc23)C1=O ?
Result: 4.1 µM

Q: Any idea what TGI was measured for CCOC(=O)C(=Cc1ccc(C#N)cc1)C(=O)OCC ?
Result: 16 µM

Q: Any idea what TGI was measured for COc1ccc(C(=O)/C=C/c2ccc(OCCCCCCCCCCOc3ccc(/C=C/C(=O)c4ccc(OC)cc4)cc3)cc2)cc1 ?
Result: > 100 µM

Q: Any idea what TGI was measured for COC(=O)Nc1nc2ccc(NS(=O)(=O)c3cccs3)cc2[nH]1 ?
Result: > 100 µM

Q: Any idea what TGI was measured for Cc1nc(OCc2ccccc2)c2ncn(CCO)c2n1 ?
Result: > 100 µM

Q: Any idea what TGI was measured for C(=N\c1nc2cc3sc(/N=C/c4ccccc4)nc3cc2s1)/c1ccccc1 ?
Result: > 100 µM

Q: Any idea what TGI was measured for COc1ccc2c(c1)c(-c1nc(-c3cn(C)c4ccncc34)cs1)cn2C ?
Result: 3.68 µM

---

System: TK-10 renal
Measurement description: NCI tumour cell line growth inhibition, 48 h
For each of the compounds below, state its TGI.

Q: Any idea what TGI was measured for O=S1(=O)c2ccccc2N(O)C2=NCCN21 ?
Result: > 100 µM

Q: Any idea what TGI was measured for COc1ccc(C(=O)C2CCC(C(=O)O)C2)cc1 (stereo not given) ?
Result: > 100 µM

Q: Any idea what TGI was measured for C#CC1(O)CCC2[C@@H]3CCc4cc(Oc5nc(F)nc(-c6c(C)c(C(=O)OCC)n7ccccc67)n5)ccc4C3CC[C@@]21C (stereo not given in full) ?
Result: > 100 µM

Q: Any idea what TGI was measured for [N-]=[N+]=NCN1C(=O)C2C3C=CC(C2C1=O)C1C2C(=O)N(CN=[N+]=[N-])C(=O)C2C31 (stereo not given) ?
Result: > 100 µM

Q: Any idea what TGI was measured for CC(C)(C)c1cc(/C=C(\C#N)C2=NCCO2)cc(C(C)(C)C)c1O ?
Result: 16 µM

---

Test system: IGROV1 ovarian
Measurement description: NCI tumour cell line growth inhibition, 48 h
Quantity kind: TGI

Q: Any idea what TGI was measured for Cc1ccc(S(=O)(=O)n2cc(C=O)c(-c3cn(S(=O)(=O)c4ccc(C)cc4)cc3-c3cn(S(=O)(=O)c4ccc(C)cc4)cc3C=O)c2)cc1 ?
Result: > 100 µM

Q: Any idea what TGI was measured for O=C1C(Cl)=C(Cl)C(=O)C(CCNc2nccs2)=C1Cl ?
Result: 42.2 µM

Q: Any idea what TGI was measured for NC(=S)N1N=C2CCCCCC[C@@H]2[C@H]1c1ccccc1 ?
Result: > 100 µM

Q: Any idea what TGI was measured for CCOC(=O)C12CCCC1(O)N(NC(=O)OC)C(C)=C2C(=O)OC (configuration not stated) ?
Result: > 100 µM

Q: Any idea what TGI was measured for O=C(CC1(O)C(=O)Nc2c(Cl)cc(Cl)cc21)c1ccccc1 (configuration not stated) ?
Result: > 100 µM

Q: Any idea what TGI was measured for CCOC(=O)c1c(O)cn2c1[nH]c1cccc3cccc2c31 ?
Result: > 100 µM

Q: Any idea what TGI was measured for CCCn1cc2c(=O)[nH]c(SC)nc2n1 ?
Result: > 100 µM

Q: Any idea what TGI was measured for Nc1ncnc2c1ncn2[C@H]1C=C[C@@H](NO)C1 ?
Result: > 100 µM

Q: Any idea what TGI was measured for O=C(O)c1cccc(S(=O)(=O)NCCO)c1 ?
Result: > 100 µM

Q: Any idea what TGI was measured for CCN1CCN(CCNc2nccc(-c3c(-c4ccc(F)c(O)c4)nc4occn34)n2)S1(=O)=O ?
Result: > 100 µM

Q: Any idea what TGI was measured for CC1=C([Te]c2ccccc2)C(=O)c2ccccc2C1=O ?
Result: 1.82 µM

Q: Any idea what TGI was measured for CCOC(=O)C1(C(=O)OCC)C(C(C)(C)C)=C(C)c2ccccc21 ?
Result: 36 µM

Q: Any idea what TGI was measured for NCCCCC(NC(=O)C(N)CCCN=C(N)N)C(=O)NC(CCCCN)C(=O)NC(CCCN=C(N)N)C(=O)NC(CCCN=C(N)N)C(=O)NC(CCC(N)=O)C(=O)NC(CCCN=C(N)N)C(=O)NC(CCCN=C(N)N)C(=O)NC(CCCN=C(N)N)C(=O)NCC(=O)NCC(=O)O (configuration not stated) ?
Result: > 50 µM

Q: Any idea what TGI was measured for [N-]=[N+]=NCN1C(=O)C2C3C=CC(C2C1=O)C1C2C(=O)N(CN=[N+]=[N-])C(=O)C2C31 (configuration not stated) ?
Result: > 100 µM

Q: Any idea what TGI was measured for Cc1c(NC(=S)Nc2ccc([N+](=O)[O-])cc2)c(=O)n(-c2ccccc2)n1C ?
Result: > 100 µM

Q: Any idea what TGI was measured for Cc1cc2c(F)c(Oc3ncnc(Nc4ccc(N5C[C@@H](C)N[C@@H](C)C5)cc4)c3C#N)cc(F)c2[nH]1 ?
Result: 6.91 µM

Q: Any idea what TGI was measured for CC(=O)Nc1nc(C)c(S(=O)(=O)NC(=O)NC2NC(=O)NC2=O)s1 (configuration not stated) ?
Result: > 100 µM

Q: Any idea what TGI was measured for COc1cc2nc(N3CCCN(C)CC3)nc(NC3CCN(Cc4ccccc4)CC3)c2cc1OC ?
Result: 25.3 µM

Q: Any idea what TGI was measured for Nc1ncc(-c2ccc3ncnc(Nc4cccc(Cl)c4)c3c2)cn1 ?
Result: 0.223 µM

Q: Any idea what TGI was measured for CO/C=C(/C(=O)OC)[C@@H]1C[C@@H]1c1ccc2ccccc2c1 ?
Result: 70.7 µM

Q: Any idea what TGI was measured for Cc1ccc2c(c1)nc1n2C(c2c(F)cccc2F)SC1 (configuration not stated) ?
Result: > 100 µM

Q: Any idea what TGI was measured for COc1ccc(NC(=O)Oc2ccc3c(C)cc(=O)oc3c2)c(OC)c1 (tested in a mixture with another compound) ?
Result: > 100 µM

Q: Any idea what TGI was measured for O=C(c1c(F)c(F)c(F)c(F)c1F)c1c(F)c(F)c(F)c(F)c1F ?
Result: 2.64 µM

Q: Any idea what TGI was measured for NC(=O)CC1OC(=O)Cc2cc3c(c(O)c21)C(=O)c1c(O)cccc1C3=O (configuration not stated) ?
Result: > 100 µM

Q: Any idea what TGI was measured for CC1C(C)(C)C23CC12C1(OCCO1)C3Br (configuration not stated) ?
Result: > 100 µM

Q: Any idea what TGI was measured for O=S1(=O)c2ccccc2N(O)C2=NCCN21 ?
Result: > 100 µM

Q: Any idea what TGI was measured for O=C(OC1=CCN(Br)C1=O)C1=C(O)C(=O)N(Br)C1 ?
Result: > 100 µM

---

For each of the compounds below, state its TGI.
Test system: MDA-MB-231 breast
Measurement description: NCI tumour cell line growth inhibition, 48 h

Q: Any idea what TGI was measured for COc1ccc(/C=N\N(C)Cc2cccc3ccsc23)cc1 ?
Result: > 100 µM

Q: Any idea what TGI was measured for Cc1c(NC(=S)Nc2ccc([N+](=O)[O-])cc2)c(=O)n(-c2ccccc2)n1C ?
Result: > 100 µM

Q: Any idea what TGI was measured for COC(=O)C(CNC(=O)/C=C/c1ccc(OC)c(OC)c1)NC(=O)/C=C/c1ccc(OC)c(OC)c1 (stereo unspecified) ?
Result: > 100 µM

Q: Any idea what TGI was measured for O=S(=O)(N=C1C(Cl)=C(Cl)C(=NS(=O)(=O)c2ccccc2)C(Cl)=C1Cl)c1ccccc1 ?
Result: > 100 µM

Q: Any idea what TGI was measured for COC(=O)CCc1ccc(CCC(=O)OC)cc1 ?
Result: > 100 µM

Q: Any idea what TGI was measured for Cc1ccc2c(C(C[N+](=O)[O-])c3ccccc3)c(-c3ccccc3)[nH]c2c1 (stereo unspecified) ?
Result: > 95 µM

---

Test system: NCI-H522 lung
Measurement description: NCI tumour cell line growth inhibition, 48 h; in the data active = GI50 below about 0.43 µM; inactive = the rest
Please reply with one of these outcomes: class 1 = active, class 0 = inactive

Q: Look up the recorded call for CCC(CC)n1cnc2c(-c3cnc(N)cn3)nc(N3CC4CCC(C3)O4)nc21 in this test.
Result: class 1

Q: Look up the recorded call for CN1C(=O)CCC(N2C(=O)c3cccc(NCCOCCOCCNC(=O)c4cc5c(o4)C(=O)c4ccccc4C5=O)c3C2=O)C1=O (stereo not drawn) in this test.
Result: class 0

Q: Look up the recorded call for Cc1cc2c(F)c(Oc3ncnc(Nc4ccc(N5C[C@@H](C)N[C@@H](C)C5)cc4)c3C#N)cc(F)c2[nH]1 in this test.
Result: class 0

Numbers sourced from PubChem BioAssay (NCI).
